Each item that follows carries a reported Free Hemoglobin, RBC in PBS, 8 μg/mL.
Tested on: erythrocyte membranes
measurement.protocol: Hemolysis in RBC suspended in PBS (Kahn method)
Assay type: cell-based, human
test.settings: pH 7.4
Peptide text beside a SMILES is read from it. * marks the point of attachment. Myristoyl = CCCCCCCCCCCCCC(=O)*; Lauroyl = CCCCCCCCCCCC(=O)*; Decanoyl = CCCCCCCCCC(=O)*; Octanoyl = CCCCCCCC(=O)*
Reply with just the number (in mg/dL).

Look over these answered cases.
{"compound": "CCCCCCCCCC(=O)N[C@@H](Cc1ccccc1)C(=O)N[C@@H](Cc1c[nH]c2ccccc12)C(=O)N[C@@H](CCCNC(=N)N)C(=O)N[C@@H](CCCNC(=N)N)C(=O)N[C@@H](Cc1ccccc1)C(=O)N[C@@H](Cc1c[nH]c2ccccc12)C(=O)N[C@@H](CCCNC(=N)N)C(=O)N[C@@H](CCCNC(=N)N)C(N)=O [LF11-227-C10] (Decanoyl-FWRRFWRR-NH2)", "target.desc": "erythrocyte membranes", "unit.tag": "mg/dL", "Free Hemoglobin, RBC in PBS, 8 μg/mL": 18.0}
{"compound": "CCCCCCCCCCCC(=O)N[C@@H](Cc1ccccc1)C(=O)N[C@@H](Cc1c[nH]c2ccccc12)C(=O)N[C@@H](CCCNC(=N)N)C(=O)N[C@@H](CCCNC(=N)N)C(=O)N[C@@H](Cc1ccccc1)C(=O)N[C@@H](Cc1c[nH]c2ccccc12)C(=O)N[C@@H](CCCNC(=N)N)C(=O)N[C@@H](CCCNC(=N)N)C(N)=O [LF11-227-C12] (Lauroyl-FWRRFWRR-NH2)", "target.desc": "erythrocyte membranes", "unit.tag": "mg/dL", "Free Hemoglobin, RBC in PBS, 8 μg/mL": 11.6}
{"compound": "CCCCCCCC(=O)N[C@@H](Cc1ccccc1)C(=O)N[C@@H](Cc1c[nH]c2ccccc12)C(=O)N[C@@H](CCCNC(=N)N)C(=O)N[C@@H](CCCNC(=N)N)C(=O)N[C@@H](Cc1ccccc1)C(=O)N[C@@H](Cc1c[nH]c2ccccc12)C(=O)N[C@@H](CCCNC(=N)N)C(=O)N[C@@H](CCCNC(=N)N)C(N)=O [LF11-227-C8] (Octanoyl-FWRRFWRR-NH2)", "target.desc": "erythrocyte membranes", "unit.tag": "mg/dL", "Free Hemoglobin, RBC in PBS, 8 μg/mL": 13.0}
{"compound": "CCCCCCCCCC(=O)N1CCC[C@H]1C(=O)N[C@@H](Cc1ccccc1)C(=O)N[C@@H](Cc1c[nH]c2ccccc12)C(=O)N[C@@H](CCCNC(=N)N)C(=O)N[C@H](C(=O)N[C@@H](CCCNC(=N)N)C(=O)N[C@H](C(=O)N[C@@H](CCCNC(=N)N)C(=O)N[C@@H](CCCNC(=N)N)C(N)=O)[C@@H](C)CC)[C@@H](C)CC [LF11-322-C10] (Decanoyl-PFWRIRIRR-NH2)", "target.desc": "erythrocyte membranes", "unit.tag": "mg/dL", "Free Hemoglobin, RBC in PBS, 8 μg/mL": 16.6}
{"compound": "CCCCCCCCCCCCCC(=O)N[C@@H](Cc1ccccc1)C(=O)N[C@@H](Cc1c[nH]c2ccccc12)C(=O)N[C@@H](CCCNC(=N)N)C(=O)N[C@@H](CCCNC(=N)N)C(=O)N[C@@H](Cc1ccccc1)C(=O)N[C@@H](Cc1c[nH]c2ccccc12)C(=O)N[C@@H](CCCNC(=N)N)C(=O)N[C@@H](CCCNC(=N)N)C(N)=O [LF11-227-C14] (Myristoyl-FWRRFWRR-NH2)", "target.desc": "erythrocyte membranes", "unit.tag": "mg/dL", "Free Hemoglobin, RBC in PBS, 8 μg/mL": 18.3}
{"compound": "CCCCCCCCCCCC(=O)N1CCC[C@H]1C(=O)N[C@@H](Cc1ccccc1)C(=O)N[C@@H](Cc1c[nH]c2ccccc12)C(=O)N[C@@H](CCCNC(=N)N)C(=O)N[C@H](C(=O)N[C@@H](CCCNC(=N)N)C(=O)N[C@H](C(=O)N[C@@H](CCCNC(=N)N)C(=O)N[C@@H](CCCNC(=N)N)C(N)=O)[C@@H](C)CC)[C@@H](C)CC [LF11-322-C12] (Lauroyl-PFWRIRIRR-NH2)", "target.desc": "erythrocyte membranes", "unit.tag": "mg/dL", "Free Hemoglobin, RBC in PBS, 8 μg/mL": 15.5}

Now for a further compound.
What value of Free Hemoglobin, RBC in PBS, 8 μg/mL has been recorded for this entry: CCCCCCCC(=O)N1CCC[C@H]1C(=O)N[C@@H](Cc1ccccc1)C(=O)N[C@@H](Cc1c[nH]c2ccccc12)C(=O)N[C@@H](CCCNC(=N)N)C(=O)N[C@H](C(=O)N[C@@H](CCCNC(=N)N)C(=O)N[C@H](C(=O)N[C@@H](CCCNC(=N)N)C(=O)N[C@@H](CCCNC(=N)N)C(N)=O)[C@@H](C)CC)[C@@H](C)CC [LF11-322-C8] (Octanoyl-PFWRIRIRR-NH2)
12.9

---

System: erythrocyte membranes
measurement.protocol: Hemolysis in RBC suspended in PBS (Kahn method)
Type: cell-based, human
test.settings: pH 7.4
Peptide text beside a SMILES is read from it. * marks the point of attachment. Lauroyl = CCCCCCCCCCCC(=O)*; Decanoyl = CCCCCCCCCC(=O)*
Each item that follows carries a reported Free Hemoglobin, RBC in PBS, 32 μg/mL.
Reply with just the number (in mg/dL).

{"compound": "CCCCCCCCCCCC(=O)N[C@@H](Cc1ccccc1)C(=O)N[C@@H](Cc1c[nH]c2ccccc12)C(=O)N[C@@H](CCCNC(=N)N)C(=O)N[C@@H](CCCNC(=N)N)C(=O)N[C@@H](Cc1ccccc1)C(=O)N[C@@H](Cc1c[nH]c2ccccc12)C(=O)N[C@@H](CCCNC(=N)N)C(=O)N[C@@H](CCCNC(=N)N)C(N)=O [LF11-227-C12] (Lauroyl-FWRRFWRR-NH2)", "target.desc": "erythrocyte membranes", "Free Hemoglobin, RBC in PBS, 32 μg/mL, mg/dL": 26.3}
{"compound": "CCCCCCCCCC(=O)N[C@@H](Cc1ccccc1)C(=O)N[C@@H](Cc1c[nH]c2ccccc12)C(=O)N[C@@H](CCCNC(=N)N)C(=O)N[C@@H](CCCNC(=N)N)C(=O)N[C@@H](Cc1ccccc1)C(=O)N[C@@H](Cc1c[nH]c2ccccc12)C(=O)N[C@@H](CCCNC(=N)N)C(=O)N[C@@H](CCCNC(=N)N)C(N)=O [LF11-227-C10] (Decanoyl-FWRRFWRR-NH2)", "target.desc": "erythrocyte membranes", "Free Hemoglobin, RBC in PBS, 32 μg/mL, mg/dL": 45.1}

Now for a further compound.
What value of Free Hemoglobin, RBC in PBS, 32 μg/mL has been recorded for this entry: CCCCCCCCCCCC(=O)N1CCC[C@H]1C(=O)N[C@@H](Cc1ccccc1)C(=O)N[C@@H](Cc1c[nH]c2ccccc12)C(=O)N[C@@H](CCCNC(=N)N)C(=O)N[C@H](C(=O)N[C@@H](CCCNC(=N)N)C(=O)N[C@H](C(=O)N[C@@H](CCCNC(=N)N)C(=O)N[C@@H](CCCNC(=N)N)C(N)=O)[C@@H](C)CC)[C@@H](C)CC [LF11-322-C12] (Lauroyl-PFWRIRIRR-NH2)
36.1

---

Each item that follows carries a reported Minimal Inhibitory Concentration, E. coli, PBS.
Tested on: E. coli (ATCC 11303)
measurement.protocol: microbe, parasite or virus in culture
Type: cell-based
test.settings: ATCC 11303, pH 7.4
Peptide text beside a SMILES is read from it. * marks the point of attachment. Myristoyl = CCCCCCCCCCCCCC(=O)*; Lauroyl = CCCCCCCCCCCC(=O)*; Decanoyl = CCCCCCCCCC(=O)*
Reply with just the number (in µg/mL).

Look over these answered cases.
{"compound": "CCCCCCCCCC(=O)N1CCC[C@H]1C(=O)N[C@@H](Cc1ccccc1)C(=O)N[C@@H](Cc1c[nH]c2ccccc12)C(=O)N[C@@H](CCCNC(=N)N)C(=O)N[C@H](C(=O)N[C@@H](CCCNC(=N)N)C(=O)N[C@H](C(=O)N[C@@H](CCCNC(=N)N)C(=O)N[C@@H](CCCNC(=N)N)C(N)=O)[C@@H](C)CC)[C@@H](C)CC [LF11-322-C10] (Decanoyl-PFWRIRIRR-NH2)", "unit.tag": "µg/mL", "assay.value": 8}
{"compound": "CCCCCCCCCCCC(=O)N1CCC[C@H]1C(=O)N[C@@H](Cc1ccccc1)C(=O)N[C@@H](Cc1c[nH]c2ccccc12)C(=O)N[C@@H](CCCNC(=N)N)C(=O)N[C@H](C(=O)N[C@@H](CCCNC(=N)N)C(=O)N[C@H](C(=O)N[C@@H](CCCNC(=N)N)C(=O)N[C@@H](CCCNC(=N)N)C(N)=O)[C@@H](C)CC)[C@@H](C)CC [LF11-322-C12] (Lauroyl-PFWRIRIRR-NH2)", "unit.tag": "µg/mL", "assay.value": 32}

Now for a further compound.
Observed Minimal Inhibitory Concentration, E. coli, PBS on E. coli (ATCC 11303) for CCCCCCCCCCCCCC(=O)N1CCC[C@H]1C(=O)N[C@@H](Cc1ccccc1)C(=O)N[C@@H](Cc1c[nH]c2ccccc12)C(=O)N[C@@H](CCCNC(=N)N)C(=O)N[C@H](C(=O)N[C@@H](CCCNC(=N)N)C(=O)N[C@H](C(=O)N[C@@H](CCCNC(=N)N)C(=O)N[C@@H](CCCNC(=N)N)C(N)=O)[C@@H](C)CC)[C@@H](C)CC [LF11-322-C14] (Myristoyl-PFWRIRIRR-NH2) , please.
64

Data credit: paper PMC6862080
